test: activity coefficient (dimensionless); of the first substance listed, at infinite dilution; xn = mol fraction of the nth substance listed
details: 338.2 K; 101 kPa; Liquid; Chromatography; x1 = 0
outcome-measure: activity coefficient

Look over these answered cases.
molecule="Cc1ccccc1 [toluene] + NCCCCCCCCCCN" outcome_measure="activity coefficient" recorded_value=2.52
molecule="C=CCCC [1-pentene] + NCCCCCCCCCCN" outcome_measure="activity coefficient" recorded_value=3.23
molecule="CCCOC(C)=O [propyl ethanoate] + NCCCCCCCCCCN" outcome_measure="activity coefficient" recorded_value=1.39
molecule="C=CCCCC [hex-1-ene] + NCCCCCCCCCCN" outcome_measure="activity coefficient" recorded_value=3.37

1 = CCc1ccccc1 [ethylbenzene] + NCCCCCCCCCCN
2 = C=CCCCCC [1-heptene] + NCCCCCCCCCCN
3 = CCCCO [butan-1-ol] + NCCCCCCCCCCN
input: Ordering: ascending activity coefficient. Write the labels, ordered according to the request.
output: 3, 1, 2
(3: 0.721, 1: 1.97, 2: 3.43)
